Test Method Notes: Rat pharmacokinetics, i.v. bolus
Type: in vivo, Sprague-Dawley rats
Condition Parameters: rat, in vivo, iv, rat, intravenous; one value for the species as given in the abstract (doses 5, 15, 45 mg/kg, both sexes in Table 1); read-out: Vss
Starred links: 1 amine or outer side, 2 acyl side, 3 side chain; linkers in the order of their positions; H or OH if unused. Positions of bridges follow the written chain, without caps; N, C: chain ends. Non-standard residues stand in square brackets, D forms with d. Residues, ends and D or L forms follow the SMILES beside them. *: point of attachment. Orn(4R-OH,5R-OCH2CH2NMe3+) = C[N+](C)(C)CCO[C@@H](N[*:3])[C@H](O)C[C@H](N[*:1])C(=O)[*:2]; pTerphenylCO(4''-OnC5H11) = CCCCCOc1ccc(-c2ccc(-c3ccc(C(=O)*)cc3)cc2)cc1; hTyr(3S-OH,4S-OH) = N[C@H](C(=O)O)[C@H](O)[C@@H](O)c1ccc(O)cc1; Pro(3S-OH,4S-Me) = C[C@H]1CN[C@H](C(=O)O)[C@H]1O; Hyp = O=C(O)[C@@H]1C[C@@H](O)CN1

[
  {
    "Compound": "CCCCCOc1ccc(-c2ccc(-c3ccc(C(=O)N[C@H]4C[C@@H](O)[C@@H](OCC[N+](C)(C)C)NC(=O)[C@@H]5[C@@H](O)[C@@H](C)CN5C(=O)[C@H]([C@@H](C)O)NC(=O)[C@H]([C@H](O)[C@@H](O)c5ccc(O)cc5)NC(=O)[C@@H]5C[C@@H](O)CN5C(=O)[C@H]([C@@H](C)O)NC4=O)cc3)cc2)cc1 [CD101] ({pTerphenylCO(4''-OnC5H11)}-[Orn(4R-OH,5R-OCH2CH2NMe3+)]T[Hyp][hTyr(3S-OH,4S-OH)]T[Pro(3S-OH,4S-Me)]; lactam 1-C)",
    "Vd, L/kg": 1.39
  }
]

---

Test Method Notes: Mouse pharmacokinetics, i.p. injection
Condition Parameters: in vivo, ip, female ICR (CD-1) mice, single 1 mg/kg i.p., plasma, LC-MS/MS, noncompartmental from mean profile, n = 3/time point
Method: A single 1-mg/kg dose of CD101 or anidulafungin was administered by slow i.v. bolus (∼2 min) to male ICR (CD-1) mice (n = 3/group/time point). […] For each of the pharmacokinetic studies, whole-blood samples (K3EDTA as anticoagulant) were collected and centrifuged within 30 min of collection. […] When necessary, dilutions with blank matrix were made for samples that quantified above the upper limit of quantitation. […]
Starred links: 1 amine or outer side, 2 acyl side, 3 side chain; linkers in the order of their positions; H or OH if unused. Positions of bridges follow the written chain, without caps; N, C: chain ends. Non-standard residues stand in square brackets, D forms with d. Residues, ends and D or L forms follow the SMILES beside them. *: point of attachment. Orn(4R-OH,5R-OCH2CH2NMe3+) = C[N+](C)(C)CCO[C@@H](N[*:3])[C@H](O)C[C@H](N[*:1])C(=O)[*:2]; pTerphenylCO(4''-OnC5H11) = CCCCCOc1ccc(-c2ccc(-c3ccc(C(=O)*)cc3)cc2)cc1; hTyr(3S-OH,4S-OH) = N[C@H](C(=O)O)[C@H](O)[C@@H](O)c1ccc(O)cc1; Pro(3S-OH,4S-Me) = C[C@H]1CN[C@H](C(=O)O)[C@H]1O; Hyp = O=C(O)[C@@H]1C[C@@H](O)CN1

[
  {
    "Compound": "CCCCCOc1ccc(-c2ccc(-c3ccc(C(=O)N[C@H]4C[C@@H](O)[C@@H](OCC[N+](C)(C)C)NC(=O)[C@@H]5[C@@H](O)[C@@H](C)CN5C(=O)[C@H]([C@@H](C)O)NC(=O)[C@H]([C@H](O)[C@@H](O)c5ccc(O)cc5)NC(=O)[C@@H]5C[C@@H](O)CN5C(=O)[C@H]([C@@H](C)O)NC4=O)cc3)cc2)cc1 [CD101] ({pTerphenylCO(4''-OnC5H11)}-[Orn(4R-OH,5R-OCH2CH2NMe3+)]T[Hyp][hTyr(3S-OH,4S-OH)]T[Pro(3S-OH,4S-Me)]; lactam 1-C)",
    "half-life / h": 71.1
  }
]

---

Test Method Notes: Rat pharmacokinetics, i.v. bolus
Format: in vivo, Sprague-Dawley rats
Condition Parameters: rat, in vivo, iv, 5 mg/kg, female Sprague-Dawley rats, single 5 mg/kg slow i.v. bolus, plasma, LC-MS/MS, noncompartmental, n = 3 to 5/dose; read-out: CL (clearance)
Starred links: 1 amine or outer side, 2 acyl side, 3 side chain; linkers in the order of their positions; H or OH if unused. Positions of bridges follow the written chain, without caps; N, C: chain ends. Non-standard residues stand in square brackets, D forms with d. Residues, ends and D or L forms follow the SMILES beside them. *: point of attachment. Orn(4R-OH,5R-OCH2CH2NMe3+) = C[N+](C)(C)CCO[C@@H](N[*:3])[C@H](O)C[C@H](N[*:1])C(=O)[*:2]; pTerphenylCO(4''-OnC5H11) = CCCCCOc1ccc(-c2ccc(-c3ccc(C(=O)*)cc3)cc2)cc1; hTyr(3S-OH,4S-OH) = N[C@H](C(=O)O)[C@H](O)[C@@H](O)c1ccc(O)cc1; Pro(3S-OH,4S-Me) = C[C@H]1CN[C@H](C(=O)O)[C@H]1O; Hyp = O=C(O)[C@@H]1C[C@@H](O)CN1

[
  {
    "Compound": "CCCCCOc1ccc(-c2ccc(-c3ccc(C(=O)N[C@H]4C[C@@H](O)[C@@H](OCC[N+](C)(C)C)NC(=O)[C@@H]5[C@@H](O)[C@@H](C)CN5C(=O)[C@H]([C@@H](C)O)NC(=O)[C@H]([C@H](O)[C@@H](O)c5ccc(O)cc5)NC(=O)[C@@H]5C[C@@H](O)CN5C(=O)[C@H]([C@@H](C)O)NC4=O)cc3)cc2)cc1 [CD101] ({pTerphenylCO(4''-OnC5H11)}-[Orn(4R-OH,5R-OCH2CH2NMe3+)]T[Hyp][hTyr(3S-OH,4S-OH)]T[Pro(3S-OH,4S-Me)]; lactam 1-C)",
    "clearance": "0.444 mL/min/kg"
  }
]

---

Test Method Notes: Rat pharmacokinetics, i.v. bolus
Format: in vivo, Sprague-Dawley rats
Condition Parameters: rat, in vivo, iv, 45 mg/kg, male Sprague-Dawley rats, single 45 mg/kg slow i.v. bolus, plasma, LC-MS/MS, noncompartmental, n = 3 to 5/dose
Starred links: 1 amine or outer side, 2 acyl side, 3 side chain; linkers in the order of their positions; H or OH if unused. Positions of bridges follow the written chain, without caps; N, C: chain ends. Non-standard residues stand in square brackets, D forms with d. Residues, ends and D or L forms follow the SMILES beside them. *: point of attachment. Orn(4R-OH,5R-OCH2CH2NMe3+) = C[N+](C)(C)CCO[C@@H](N[*:3])[C@H](O)C[C@H](N[*:1])C(=O)[*:2]; pTerphenylCO(4''-OnC5H11) = CCCCCOc1ccc(-c2ccc(-c3ccc(C(=O)*)cc3)cc2)cc1; hTyr(3S-OH,4S-OH) = N[C@H](C(=O)O)[C@H](O)[C@@H](O)c1ccc(O)cc1; Pro(3S-OH,4S-Me) = C[C@H]1CN[C@H](C(=O)O)[C@H]1O; Hyp = O=C(O)[C@@H]1C[C@@H](O)CN1
Measurement Kind: AUC(0-inf) (µg·h/mL)

[
  {
    "Compound": "CCCCCOc1ccc(-c2ccc(-c3ccc(C(=O)N[C@H]4C[C@@H](O)[C@@H](OCC[N+](C)(C)C)NC(=O)[C@@H]5[C@@H](O)[C@@H](C)CN5C(=O)[C@H]([C@@H](C)O)NC(=O)[C@H]([C@H](O)[C@@H](O)c5ccc(O)cc5)NC(=O)[C@@H]5C[C@@H](O)CN5C(=O)[C@H]([C@@H](C)O)NC4=O)cc3)cc2)cc1 [CD101] ({pTerphenylCO(4''-OnC5H11)}-[Orn(4R-OH,5R-OCH2CH2NMe3+)]T[Hyp][hTyr(3S-OH,4S-OH)]T[Pro(3S-OH,4S-Me)]; lactam 1-C)",
    "Measurement Kind": "AUC(0-inf)",
    "Value Units": "µg·h/mL",
    "Observed Measurement": 1660
  }
]

---

Test Method Notes: Mouse pharmacokinetics, i.p. injection
Condition Parameters: in vivo, ip, female ICR (CD-1) mice, single 16 mg/kg i.p., plasma, LC-MS/MS, noncompartmental from mean profile, n = 3/time point
Starred links: 1 amine or outer side, 2 acyl side, 3 side chain; linkers in the order of their positions; H or OH if unused. Positions of bridges follow the written chain, without caps; N, C: chain ends. Non-standard residues stand in square brackets, D forms with d. Residues, ends and D or L forms follow the SMILES beside them. *: point of attachment. Orn(4R-OH,5R-OCH2CH2NMe3+) = C[N+](C)(C)CCO[C@@H](N[*:3])[C@H](O)C[C@H](N[*:1])C(=O)[*:2]; pTerphenylCO(4''-OnC5H11) = CCCCCOc1ccc(-c2ccc(-c3ccc(C(=O)*)cc3)cc2)cc1; hTyr(3S-OH,4S-OH) = N[C@H](C(=O)O)[C@H](O)[C@@H](O)c1ccc(O)cc1; Pro(3S-OH,4S-Me) = C[C@H]1CN[C@H](C(=O)O)[C@H]1O; Hyp = O=C(O)[C@@H]1C[C@@H](O)CN1

[
  {
    "Compound": "CCCCCOc1ccc(-c2ccc(-c3ccc(C(=O)N[C@H]4C[C@@H](O)[C@@H](OCC[N+](C)(C)C)NC(=O)[C@@H]5[C@@H](O)[C@@H](C)CN5C(=O)[C@H]([C@@H](C)O)NC(=O)[C@H]([C@H](O)[C@@H](O)c5ccc(O)cc5)NC(=O)[C@@H]5C[C@@H](O)CN5C(=O)[C@H]([C@@H](C)O)NC4=O)cc3)cc2)cc1 [CD101] ({pTerphenylCO(4''-OnC5H11)}-[Orn(4R-OH,5R-OCH2CH2NMe3+)]T[Hyp][hTyr(3S-OH,4S-OH)]T[Pro(3S-OH,4S-Me)]; lactam 1-C)",
    "Value Units": "µg/mL",
    "Cmax": 52
  }
]

From: paper PMC5365648
